# TEST TARGET: RSV F on RSV subtype B virus (mKate-RSV B 18537) (respiratory syncytial virus B 18537, UniProt P13843 26-574)
# Sequence (P13843 26-574): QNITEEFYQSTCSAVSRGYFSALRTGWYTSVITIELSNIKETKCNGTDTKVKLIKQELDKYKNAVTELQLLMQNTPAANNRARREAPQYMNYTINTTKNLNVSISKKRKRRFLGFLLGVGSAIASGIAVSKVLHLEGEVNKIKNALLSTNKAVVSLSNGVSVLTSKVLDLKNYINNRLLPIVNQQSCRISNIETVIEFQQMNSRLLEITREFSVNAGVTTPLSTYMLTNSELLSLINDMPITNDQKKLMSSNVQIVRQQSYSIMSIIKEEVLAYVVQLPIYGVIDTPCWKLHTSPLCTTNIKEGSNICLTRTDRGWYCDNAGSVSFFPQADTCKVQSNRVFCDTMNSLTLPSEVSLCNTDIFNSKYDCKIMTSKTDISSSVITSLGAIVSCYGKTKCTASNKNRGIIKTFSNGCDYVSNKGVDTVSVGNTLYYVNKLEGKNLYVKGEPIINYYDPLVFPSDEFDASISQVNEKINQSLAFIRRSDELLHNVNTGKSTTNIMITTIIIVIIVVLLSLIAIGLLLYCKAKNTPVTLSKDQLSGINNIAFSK
# METHOD SUMMARY: cell-based or functional assay
So I've got a bunch of binders here, and I need their Neut IC50 subtype B values.
Give bare numbers, in µg/mL.

Take each entry in turn and give its Neut IC50 subtype B.
1. ADI-24819 (antibody, V domains shown, full-length IgG) VH: EVQLLESGGGLVKPGGSLRLSCAASGFTFSSYSMNWVRQAPGKGLEWVSSISSSSSYIYYADSVKGRFTISRDNAKNSLYLQMNSLRAEDTAVYYCARESGSGWYYFDYWGQGTLVTVSS VL: QSVLTQPPSVSGAPGQRVTISCTGSSSNIGAGYDVHWYQQLPGTAPKLLIYGNSNRPSGVPDRFSGSKSGTSASLAITGLQAEDEADYYCQSYDGSLSGVFGGGTKVTVL
2. ADI-14357 (antibody, V domains shown, full-length IgG; also called Ab 25) VH: EVQLVESGGGVVQPGRSLRLSCAASGFTFSNYAMHWVRQAPGKGLEWVSIISYDGSNKYYADSVKGRFTISRDNSKNTLYLQINSLRTEDTAVYYCARARKRIPIVVVTAPYYYGMDVWGQGTTVTVSS VL: DIRVTQSPSSLSASVGDRVTITCRASQSISSYLHWYQQQPGKAPNLLIYAASNLQSGVPSRFSGSGSGTDFTLTISSLQPEDFATYYCQQSYTTPHTFGQGTKVEIK

### Response
1: 6.28; 2: 0.88
